- Experimental target: human CYP11B1 (Homo sapiens, UniProt P15538)
- Experiment: G-402 cellular enzyme assay, human CYP11B1 (cortisol release, HTRF)
- Assay conditions: G-402 cells, 1 μM Deoxycortisol
Catalogue of compounds with associated pEC50
Worth noting: pEC50 values are minus log10 of concentrations stated in mol/L.

Cc1c(-c2cncc(N3CCc4cc(Cl)ccc4C3=O)c2)cnn1C = 5.99
Cn1ncc(Cl)c1-c1cncc(N2C(=O)c3ccc(Cl)cc3C2(C)C)c1 = 7.33
CC(c1cncc(N2CCc3cc(Cl)ccc3C2=O)c1)n1ccnc1 (stereo not drawn) = 7.55
O=C1CCCN1Cc1cncc(N2CCc3cc(Cl)ccc3C2=O)c1 = 5.39
CCC(=O)N1CC(Oc2cncc(N3C(=O)c4ccc(Cl)cc4C3(C)C)c2)C1 = 5.27

What the record says about `O=C1NCCN1Cc1cncc(N2CCc3cc(Cl)ccc3C2=O)c1` : pEC50 is 5.22

Form field pEC50, entry CC(=O)NC1CCc2c1cncc2N1Cc2cc(Cl)ccc2C1=O (single isomer, unassigned; (+)) : 5.29

# pEC50 of `O=C1c2ccc(Cl)cc2CCN1c1cncc(-c2cc(F)cc(F)c2)c1` = 4.67

Value of measured pEC50 for the entry `O=C1c2cc(F)c(Cl)cc2CCN1c1cccnc1` : 5.45

Entry `O=C1c2ccc(Cl)cc2CCN1c1cncc(CN2CCCCS2(=O)=O)c1` — recorded pEC50 = 5.63

Query `COCc1ccncc1N1CCc2cc(Cl)ccc2C1=O` yields pEC50 of 5.12

Sure, the documented pEC50 for `Cc1ccc(Cc2cncc(N3CCc4cc(Cl)ccc4C3=O)c2)cn1` is 8.17

The reported pEC50 of the compound CCS(=O)(=O)NC1CCCc2c1cncc2N1Cc2cc(Cl)ccc2C1=O (racemic) [Example 315] was 4.51

Briefly, pEC50 measured for `CC1(C)c2cc(Cl)ccc2C(=O)N1c1cncc(OC2CC2)c1` : 6.94

Notebook: CC1CN(c2cncc(F)c2)C(=O)c2ccc(Cl)cc21 (stereo not drawn) , pEC50 read as 5.07

// sample CCC(=O)N[C@@H]1CCCc2c1cncc2N1C(=O)c2ccc(Cl)cc2[C@H]1CC (single isomer, unassigned) , its pEC50 was 6.46

# pEC50 of CC(Nc1ccccc1)c1cncc(N2CCc3cc(Cl)ccc3C2=O)c1 (stereo not drawn) = 7.46

Reported pEC50 of `CC1(C)c2cc(Cl)ccc2C(=O)N1c1cncc(N2CCN(S(C)(=O)=O)CC2)c1` : 6.53

----------
- Experimental target: human CYP11B1 (Homo sapiens)
- Sequence (P15538 25-503): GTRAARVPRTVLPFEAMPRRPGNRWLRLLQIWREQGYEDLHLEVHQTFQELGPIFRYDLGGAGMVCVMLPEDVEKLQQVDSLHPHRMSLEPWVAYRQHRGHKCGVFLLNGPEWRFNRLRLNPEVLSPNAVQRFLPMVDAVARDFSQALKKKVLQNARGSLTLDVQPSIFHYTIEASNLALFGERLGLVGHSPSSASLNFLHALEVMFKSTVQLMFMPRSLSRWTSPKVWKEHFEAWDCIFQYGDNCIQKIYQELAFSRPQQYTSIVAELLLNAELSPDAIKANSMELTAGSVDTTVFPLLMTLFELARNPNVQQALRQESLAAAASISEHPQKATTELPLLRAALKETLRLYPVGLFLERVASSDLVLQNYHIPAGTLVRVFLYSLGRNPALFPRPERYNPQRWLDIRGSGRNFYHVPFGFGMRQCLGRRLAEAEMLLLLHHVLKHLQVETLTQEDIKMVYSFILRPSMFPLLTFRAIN
- Experiment: G-402 cellular enzyme assay, human CYP11B1 (cortisol release, HTRF)
- Assay conditions: G-402 cells, 1 μM Deoxycortisol
Measured property: EC50 (µM)
Just the number please, in µM, no unit attached.

CCC(=O)N[C@@H]1CCCc2c1cncc2N1C(=O)c2ccc(Cl)cc2[C@H]1C (single isomer, unassigned) [Example 361] = 9.41
O=C(Cc1cncc(N2CCc3cc(Cl)ccc3C2=O)c1)N1CCOCC1 [Example 263] = 4.93
CCC(=O)N[C@H]1CCCc2c1cncc2N1C(=O)c2ccc(Cl)cc2[C@H]1C (single isomer, unassigned) [Example 360] = 16.1

Kindly consider the entry below.
For record CC1(C)c2cc(Cl)ccc2C(=O)N1c1cncc(OC2CCN(S(C)(=O)=O)C2)c1 (stereo not shown) [Example 445] the listed EC50 is 0.914
